assay-remarks: Chemical stability of the compound in acidic buffer assessed as compound hydrolysis at pH 2 measured for 240 mins by HPLC-PDA analysis
Type: physicochemical
experimental-setup: pH 2, 4 h

test-smiles: CN(/N=C/c1ccc(C(=O)NO)cc1)C(=O)c1ccc(N(C)C)cc1
Stability: Unstable
--
test-smiles: CN(C)c1ccc(C(=O)N/N=C/c2ccc(C(=O)NO)cc2)cc1
Stability: Unstable
--
test-smiles: C/C(=N\N(C)C(=O)c1ccc(N(C)C)cc1)c1ccc(C(=O)NO)cc1
Stability: Unstable
--
test-smiles: C/C(=N\NC(=O)c1ccc(N(C)C)cc1)c1ccc(C(=O)NO)cc1
Stability: Unstable
